Origin of values: patent US20120177664A1

target: T1, A beta oligomer (synthetic A beta1-40, HCl form, 0.1 mg/ml in PBS, incubated at 37 degrees C for one hour) (UniProt P05067 672-711); assay: SPR (Biacore 3000)
T1 construct: domain: A beta1-40; non-fibrous multimer of the peptide; also called A beta 1-40 oligomer
Measured kon of individual entries
The response must be a number in M⁻¹ s⁻¹ with no trailing unit.

Below are worked cases with known answers.
IR-135 antibody (antibody, V domains shown, mouse IgG2a) VH: QVQLQQSGAELAKPGASVKMSCKASGYTFTSYWMHWVKQRPGQGLEWIGYINPSTGYTEYNQKFKDKATLTADKSSSTAYMQLSSLTSEDSAVYYCDYYGSSYGYFDVWGAGTTVTVSS VL: DVVMTQTPLSLPVSLGDQASISCRSSQSLVHSNGNTYLHWYLQKPGQSPKLLIYKVSNRFSGVPDRFSGSGSGTDFTLKISRVEAEDLGVFFCSQSTHVPLTFGAGTKLELK | 89900
IR-127 antibody (antibody, mouse IgG2a, V domains shown, mouse IgG2a) VH: DVQLVESGGGLVQPGGSRKLSCAASGFTFSSFGMHWVRQAPEKGLEWVAYISSGSSTIYYADTVKGRFTISRDNPKNTLFLQMTSLRSEDTAMYYCARKGTYYRYDAFDYWGQGTTLTVSS VL: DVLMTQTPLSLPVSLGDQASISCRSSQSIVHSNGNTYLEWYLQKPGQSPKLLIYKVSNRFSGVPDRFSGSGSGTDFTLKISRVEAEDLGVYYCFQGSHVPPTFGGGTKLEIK | 256000
IR-079 antibody (antibody, mouse IgG2b, V domains shown, mouse IgG2b) VH: DVQLVESGGGLVQPGGSRKLSCAASGFTFSSFGMHWVRQAPEKGLEWVAYISSGSSTIYYADTVKGRFTISRDNPKNTLFLQMTSLRSEDTAMYYCARYGTLYYYAMDYWGQGTSVTVSS VL: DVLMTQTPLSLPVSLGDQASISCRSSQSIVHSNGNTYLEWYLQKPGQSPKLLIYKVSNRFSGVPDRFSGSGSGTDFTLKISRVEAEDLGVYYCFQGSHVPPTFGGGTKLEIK | 282000
IR-095 antibody (antibody, mouse IgG2b, V domains shown, mouse IgG2b) VH: QVTLKESGPGILQPSQTLSLTCSFSGFSLSTSGMGVSWIRQPSGKGLEWLAHIYWDDDKRYNPSLKSRLTISKDTSRNQVFLKITSVDTADTATYYCARRAPRLYYGYDAMDYWGQGTSVTVSS VL: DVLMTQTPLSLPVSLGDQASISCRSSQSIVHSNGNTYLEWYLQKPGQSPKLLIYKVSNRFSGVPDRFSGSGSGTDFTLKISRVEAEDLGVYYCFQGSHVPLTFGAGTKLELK | 94600

Here is the next item to consider.
So what's the measured kon for this one? IR-037 antibody (antibody, mouse IgG1, V domains shown, mouse IgG1) VH: DVQLVESGGGLVQPGGSRKLSCAASGFTFSSFGMHWVRQAPEKGLEWVAYISSGSSTIYYADTVKGRFTISRDNPKNTLFLQMTSLRSEDTAMYYCARDGTMDYWGQGTSVTVSS VL: DAVMTQTPLSLPVSLGDQASISCRSSQSLENSNGNTYLNWYLQKPGQSPQLLIYRVSNRFSGVLDRFSGSGSGTDFTLKISRVEAEDLGVYFCLQVTHVPPTFGGGTKLEIK
92400
